Exercise: state measured shrunken log2 fold change for each of the sequences provided.
# Tested on: Escherichia coli TOP10;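 note: peptides expressed intracellularly from a pBAD plasmid library in pooled LB shake-flask culture, induced with 0.3% L-arabinose, DNA abundance read by NGS, three biological replicates, DESeq2 with apeglm shrinkage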
# experimentalDetails: shrunken log2 fold change of peptide-encoding DNA abundance (4.5 h post-induction vs induction); higher = less antimicrobial activity (less host growth inhibition)
# conditionSummary: time post-induction: 4.5 h; library: site-saturation at positions 5, 18, 19, 20
Give bare numbers.

Known results for sequences:
> print(dat)
              itemsequence             recordedmetric  numericreadout
1  RRIRVRPPRLPRPRPRPQMDPRP  shrunken log2 fold change          -0.297
2  RRIRSRPPRLPRPRPRPVTAPRP  shrunken log2 fold change         -0.0769
3  RRIRVRPPRLPRPRPRPVVLPRP  shrunken log2 fold change          0.0921
4  RRIRHRPPRLPRPRPRPQQTPRP  shrunken log2 fold change          0.0173
5  RRIRCRPPRLPRPRPRPHKMPRP  shrunken log2 fold change          -0.593

I would be grateful if you could provide shrunken log2 fold change for each of the following entries.
1. RRIRRRPPRLPRPRPRPDECPRP
2. RRIRPRPPRLPRPRPRPNQPPRP

Output line:
0.746
0.0225
